# TARGET_UNDER_TEST: UniProt:P51449
# Sequence (P51449 whole entry, the tested form may be a part): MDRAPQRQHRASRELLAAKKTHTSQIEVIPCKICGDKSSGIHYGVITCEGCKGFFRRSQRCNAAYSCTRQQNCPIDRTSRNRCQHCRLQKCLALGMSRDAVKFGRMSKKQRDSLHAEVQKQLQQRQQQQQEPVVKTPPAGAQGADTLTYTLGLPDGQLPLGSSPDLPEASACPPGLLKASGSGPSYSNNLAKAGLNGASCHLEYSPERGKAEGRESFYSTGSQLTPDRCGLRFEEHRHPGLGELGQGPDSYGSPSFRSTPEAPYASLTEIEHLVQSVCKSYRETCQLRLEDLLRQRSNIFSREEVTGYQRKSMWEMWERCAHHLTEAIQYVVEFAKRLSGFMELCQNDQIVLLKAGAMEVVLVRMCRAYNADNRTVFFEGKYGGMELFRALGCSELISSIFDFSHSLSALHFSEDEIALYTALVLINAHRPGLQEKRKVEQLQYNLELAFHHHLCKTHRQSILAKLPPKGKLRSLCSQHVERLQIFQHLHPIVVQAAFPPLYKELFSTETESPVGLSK
# TEST_METHOD_NOTES: Inverse agonist activity at Gal4-fused RORgammat (unknown origin)
PARAMETER_MEASURED: EC50 (nM)

| SMI | NUMBER |
| --- | --- |
| N#Cc1cc2c(cc1C(F)(C(F)(F)F)C(F)(F)F)CC[C@H]1N(C(=O)[C@H]3CC[C@H](C(=O)O)CC3)CC[C@@]21S(=O)(=O)c1ccc(F)cc1 | 17 |

###

# TEST_METHOD_NOTES: Volume of distribution at steady state in rat at 2 mg/kg, iv
# Type: ADME, organism-based
# APPLIED_CONDITIONS: in vivo, read-out: Vdss
PARAMETER_MEASURED: Vd (L/kg)

| SMI | PARAMETER_MEASURED | NUMBER |
| --- | --- | --- |
| C[C@H]1C[C@H](C(=O)O)CC[C@H]1C(=O)N1CC[C@@]2(S(=O)(=O)c3ccccc3)c3cc(F)c(C(F)(C(F)(F)F)C(F)(F)F)cc3CC[C@@H]12 | Vd | 1.3 |

###

# TEST_METHOD_NOTES: Cmax in dog at 2 mg/kg, po
# Assay type: ADME, organism-based, Canis lupus familiaris
# Design: route oral, dose 2 mg/kg
# APPLIED_CONDITIONS: in vivo

| SMI | Cmax, µM |
| --- | --- |
| C[C@H]1C[C@H](C(=O)O)CC[C@H]1C(=O)N1CC[C@@]2(S(=O)(=O)c3ccccc3)c3cc(F)c(C(F)(C(F)(F)F)C(F)(F)F)cc3CC[C@@H]12 | 3.8 |

###

# TEST_METHOD_NOTES: Half life in rat at 2 mg/kg, iv
# Type: ADME, organism-based
# APPLIED_CONDITIONS: in vivo

| SMI | UNIT_ABBREVIATION | half-life |
| --- | --- | --- |
| C[C@H]1C[C@H](C(=O)O)CC[C@H]1C(=O)N1CC[C@@]2(S(=O)(=O)c3ccccc3)c3cc(F)c(C(F)(C(F)(F)F)C(F)(F)F)cc3CC[C@@H]12 | h | 5.8 |

###

# TEST_METHOD_NOTES: Fraction unbound in human plasma
# Assay type: ADME, cell-free

| SMI | fraction unbound |
| --- | --- |
| C[C@H]1C[C@H](C(=O)O)CC[C@H]1C(=O)N1CC[C@@]2(S(=O)(=O)c3ccccc3)c3cc(F)c(C(F)(C(F)(F)F)C(F)(F)F)cc3CC[C@@H]12 | 0.012 |

###

# TEST_METHOD_NOTES: Oral bioavailability in cynomolgus monkey at 2 mg/kg
# Type: ADME, organism-based, Macaca fascicularis
# APPLIED_CONDITIONS: in vivo
PARAMETER_MEASURED: bioavailability (%)

| SMI | NUMBER |
| --- | --- |
| C[C@H]1C[C@H](C(=O)O)CC[C@H]1C(=O)N1CC[C@@]2(S(=O)(=O)c3ccccc3)c3cc(F)c(C(F)(C(F)(F)F)C(F)(F)F)cc3CC[C@@H]12 | 100 |

###

# TARGET_UNDER_TEST: Cytochrome P450 2C8 (Homo sapiens, UniProt P10632)
# Sequence (P10632 whole entry): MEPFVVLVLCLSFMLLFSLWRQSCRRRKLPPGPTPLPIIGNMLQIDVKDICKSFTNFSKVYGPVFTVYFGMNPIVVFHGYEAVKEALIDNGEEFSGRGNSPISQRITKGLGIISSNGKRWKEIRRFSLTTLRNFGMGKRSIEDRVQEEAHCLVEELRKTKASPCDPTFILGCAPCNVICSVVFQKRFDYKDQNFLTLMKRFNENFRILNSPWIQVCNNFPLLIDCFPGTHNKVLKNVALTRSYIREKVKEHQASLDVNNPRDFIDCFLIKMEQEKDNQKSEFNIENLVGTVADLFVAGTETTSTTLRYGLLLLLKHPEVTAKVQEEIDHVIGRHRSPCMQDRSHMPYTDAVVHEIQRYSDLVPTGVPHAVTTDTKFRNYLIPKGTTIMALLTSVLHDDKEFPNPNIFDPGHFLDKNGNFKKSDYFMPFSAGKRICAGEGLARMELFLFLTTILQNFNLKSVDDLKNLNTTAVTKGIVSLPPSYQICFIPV
# TEST_METHOD_NOTES: Inhibition of recombinant CYP2C8 (unknown origin)
PARAMETER_MEASURED: IC50 (nM)

| SMI | NUMBER |
| --- | --- |
| C[C@H]1C[C@H](C(=O)O)CC[C@H]1C(=O)N1CC[C@@]2(S(=O)(=O)c3ccccc3)c3cc(F)c(C(F)(C(F)(F)F)C(F)(F)F)cc3CC[C@@H]12 | 1900 |
